// provenance: paper PMC12272249

Target: matriptase (Homo sapiens, UniProt Q9Y5Y6)
Construct: purchased R&D Systems (Bio-Techne) 3946-SEB
Sequence (Q9Y5Y6 615-855 limits assumed): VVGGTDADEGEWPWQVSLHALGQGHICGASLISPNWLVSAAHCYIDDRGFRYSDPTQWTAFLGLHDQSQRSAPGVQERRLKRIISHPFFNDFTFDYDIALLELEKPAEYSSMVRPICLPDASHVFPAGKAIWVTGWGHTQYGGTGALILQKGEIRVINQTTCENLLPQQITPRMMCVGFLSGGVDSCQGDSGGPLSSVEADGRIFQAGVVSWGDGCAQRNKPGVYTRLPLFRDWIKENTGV
Experiment: FRET-based kinetic analysis of matriptase cleavage
Type: biochemical
Details: Abz/Dnp-labelled 6-mer peptide, serial dilution of substrate, 10 nM matriptase, PBS, 37°C, 90 min, Ex 320/Em 420 nm, Michaelis-Menten fit, average ± SD, n = 3
We begin with a simple list: items and their reported kcat.
I only need the number, in s⁻¹, no unit after it.

Some substances with known kcat results, for comparison:
GAKSRR [MtpB9]	4.4
VPRGRR [MtpC5]	6.4
HYKGRK [MtpC9]	5.6

Read the next record carefully.
The reported kcat of the substance LSGRSDNH [Mtp-control, reference compound] was 2.5

* * *

Target: matriptase (Homo sapiens)
Construct: purchased R&D Systems (Bio-Techne) 3946-SEB
Experiment: E. coli display cleavage reporter assay, flow cytometry, matriptase treatment
Type: biochemical
Details: E. coli-displayed substrate, 1, 10, 25 and 50 nM matriptase over 90 min
experimental.readout: relative cleavage efficiency group (high, medium, low)

GAKSRR [MtpB9]	high
VPRGRR [MtpC5]	high
HYKGRK [MtpC9]	high
MKRKAR [MtpC10]	medium
PFKRQL [MtpC12]	low

The reported value for LKRLMR [MtpA6] in terms of relative cleavage efficiency group (high, medium, low) is low

Lookup result for MGRSFY [MtpB11] ; measured relative cleavage efficiency group (high, medium, low): medium
